These entries and their values trace back to patent US20240018252A1.

Target: T1, cyBCMA (cynomolgus, UniProt A0A2K5UD97 1-53)
T1 construct: Soluble analyte in SPR; construct not described; also called cyno BCMA
T1 sequence (A0A2K5UD97 entry or part of it): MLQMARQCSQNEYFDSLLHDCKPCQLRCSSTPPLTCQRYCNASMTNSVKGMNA
Test: SPR, immobilised IgG, 25° C
Quick reference: T½ of the listed items.

These solved cases illustrate the format of a correct answer.
1. L1.LGF/L3.PY/H3.AQ (antibody, V domains shown, IgG in the assay) VH: EVQLLESGGGLVQPGGSLRLSCAASGFTFGSYAMTWVRQAPGKGLEWVSAISGSGGNTFYADSVKGRFTISRDNSKNTLYLQMNSLRAEDTAVYYCARVSPIAAQMDYWGQGTLVTVSS VL: EIVLTQSPGTLSLSPGERATLSCRASQSLGSFYLAWYQQKPGQAPRLLIYGASSRATGIPDRFSGSGSGTDFTLTISRLEPEDFAVYYCQHYPYPPSFTFGQGTKVEIK
2.4 min
2. L1.LGF/L3.NY/P6E01 (antibody, V domains shown, IgG in the assay) VH: EVQLLESGGGLVQPGGSLRLSCAASGFTFGSYAMTWVRQAPGKGLEWVSAISGSGGNTFYADSVKGRFTISRDNSKNTLYLQMNSLRAEDTAVYYCARVSPIASGMDYWGQGTLVTVSS VL: EIVLTQSPGTLSLSPGERATLSCRASQSLGSFYLAWYQQKPGQAPRLLIYGASSRATGIPDRFSGSGSGTDFTLTISRLEPEDFAVYYCQHYNYPPSFTFGQGTKVEIK
1.1 min
3. L1.LGF/L3.KW/H3.AQ (antibody, V domains shown, IgG in the assay) VH: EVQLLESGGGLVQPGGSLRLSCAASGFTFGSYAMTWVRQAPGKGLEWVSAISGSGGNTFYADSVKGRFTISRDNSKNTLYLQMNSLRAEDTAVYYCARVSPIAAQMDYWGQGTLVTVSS VL: EIVLTQSPGTLSLSPGERATLSCRASQSLGSFYLAWYQQKPGQAPRLLIYGASSRATGIPDRFSGSGSGTDFTLTISRLEPEDFAVYYCKHYGWPPSFTFGQGTKVEIK
3.3 min
4. L1.GDF/L3.NY/P6E01 (antibody, V domains shown, IgG in the assay) VH: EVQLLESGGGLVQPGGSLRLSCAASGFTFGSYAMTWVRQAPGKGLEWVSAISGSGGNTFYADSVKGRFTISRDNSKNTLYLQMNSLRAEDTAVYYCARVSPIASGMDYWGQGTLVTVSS VL: EIVLTQSPGTLSLSPGERATLSCRASQSVGDFYLAWYQQKPGQAPRLLIYGASSRATGIPDRFSGSGSGTDFTLTISRLEPEDFAVYYCQHYNYPPSFTFGQGTKVEIK
1.5 min

Q) // lookup T½ for L1.GDF/L3.KW/H3.AL (antibody, V domains shown, IgG in the assay) VH: EVQLLESGGGLVQPGGSLRLSCAASGFTFGSYAMTWVRQAPGKGLEWVSAISGSGGNTFYADSVKGRFTISRDNSKNTLYLQMNSLRAEDTAVYYCARVSPIAALMDYWGQGTLVTVSS VL: EIVLTQSPGTLSLSPGERATLSCRASQSVGDFYLAWYQQKPGQAPRLLIYGASSRATGIPDRFSGSGSGTDFTLTISRLEPEDFAVYYCKHYGWPPSFTFGQGTKVEIK
A) 0.6 min
